Parameter DC50: see the listing below.
# target of assay: BTK (Homo sapiens, UniProt Q06187)
# Sequence (Q06187 whole entry): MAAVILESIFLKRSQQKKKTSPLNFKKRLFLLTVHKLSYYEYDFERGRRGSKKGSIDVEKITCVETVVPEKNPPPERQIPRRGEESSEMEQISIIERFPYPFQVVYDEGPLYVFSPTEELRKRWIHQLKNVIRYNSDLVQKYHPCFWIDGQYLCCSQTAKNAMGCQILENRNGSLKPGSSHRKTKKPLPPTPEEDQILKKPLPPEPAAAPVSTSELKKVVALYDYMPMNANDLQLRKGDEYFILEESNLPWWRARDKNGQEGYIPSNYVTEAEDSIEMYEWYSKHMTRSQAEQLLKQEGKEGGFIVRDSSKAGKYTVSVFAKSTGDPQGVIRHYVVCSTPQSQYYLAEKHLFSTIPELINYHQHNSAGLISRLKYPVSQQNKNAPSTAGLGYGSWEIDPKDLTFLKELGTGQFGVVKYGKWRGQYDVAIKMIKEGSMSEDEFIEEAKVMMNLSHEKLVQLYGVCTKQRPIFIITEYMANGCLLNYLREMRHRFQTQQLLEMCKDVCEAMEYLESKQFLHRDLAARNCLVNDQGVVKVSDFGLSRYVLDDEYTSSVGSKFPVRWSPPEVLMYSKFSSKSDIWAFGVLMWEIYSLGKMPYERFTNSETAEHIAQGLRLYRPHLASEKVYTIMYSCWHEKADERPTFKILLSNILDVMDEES
# test description: Degradation of BTK protein in Namalwa cells (Western blot; DC50, Dmax)
# condition summary: read-out: DC50 (BTK degradation); concentration giving 50% reduction of BTK expression level; cell line not given

molecule	DC50
Nc1ncnc2c1c(-c1ccc(Oc3ccccc3)cc1)nn2[C@@H]1CCCN(C2CCN(C(=O)NC3CCC(=O)NC3=O)CC2)C1 (stereo partly drawn)	< 10 nM
NC(=O)c1c(-c2ccc(Oc3ccccc3)cc2)nn2c1NCC[C@H]2C1CCN(CC2CCN(C(=O)N3CCC(C4CCN(c5ccc6c(c5)CN(C5CCC(=O)NC5=O)C6=O)CC4)CC3)CC2)CC1 (stereo partly drawn)	< 10 nM
Nc1ncnc2c1c(-c1ccc(Oc3ccccc3)cc1)nn2C1CCN(CC2CC(N3CCN(c4ccc5c(c4)CN(C4CCC(=O)NC4=O)C5=O)CC3)C2)CC1 (stereo not drawn)	< 10 nM
Nc1ncnc2c1c(-c1ccc(Oc3ccccc3)cc1)nn2C1CCN(CCN2CCC(CSc3ccc4c(c3)CN(C3CCC(=O)NC3=O)C4=O)CC2)CC1 (stereo not drawn)	< 10 nM
Nc1ncnc2c1c(-c1ccc(Oc3ccccc3)cc1)nn2C1CCN(CCOCCOCCN2CCC(c3ccc4c(c3)C(=O)N(C3CCC(=O)NC3=O)C4=O)CC2)CC1 (stereo not drawn)	< 10 nM
Nc1ncnc2c1c(-c1ccc(Oc3ccccc3)cc1)nn2C1CCN(CCN2CCC(CC3CCN(c4ccc(NC5CCC(=O)NC5=O)cc4)CC3)C2)CC1 (stereo not drawn)	10 to 50 nM
Nc1ncnc2c1c(-c1ccc(Oc3ccccc3)cc1)nn2C1CCN(CC2CN(CC3CCN(c4ccc5c(c4)CN(C4CCC(=O)NC4=O)C5=O)C3)C2)CC1 (stereo not drawn)	< 10 nM
Nc1ncnc2c1c(-c1ccc(Oc3ccccc3)cc1)nn2C1CCN(C2CCN(CCCC#Cc3ccc(N4CCC(=O)NC4=O)cc3)C2)CC1 (stereo not drawn)	> 50 nM

Note to self: DC50 recorded for Nc1ncnc2c1c(-c1ccc(Oc3ccccc3)cc1)nn2C1CCN(C2CCN(CCCN3CCC(c4ccc(N5CCC(=O)NC5=O)cc4)CC3)C2)CC1 (stereo not drawn) was < 10 nM

Note to self: DC50 recorded for Nc1ncnc2c1c(-c1ccc(Oc3ccccc3)cc1)nn2C1CCN(CC2CCN(CC3CCN(c4ccc5c(c4)oc(=O)n5C4CCC(=O)NC4=O)CC3)CC2)CC1 (stereo not drawn) was 10 to 50 nM

Note to self: DC50 recorded for NC1=NC=NC2C1C(c1ccc(Oc3ccccc3)cc1)=NN2C1CCN(C(=O)N2CC(C3CN(c4ccc5c(c4)CN(C4CCC(=O)NC4=O)C5=O)C3)C2)CC1 (stereo not drawn) was < 10 nM

Note to self: DC50 recorded for Nc1ncnc2c1c(-c1ccc(Oc3ccccc3)cc1)nn2C1CCN(CCN2CCN(CCCSc3ccc4c(c3)C(=O)N(C3CCC(=O)NC3=O)C4=O)CC2)CC1 (stereo not drawn) was 10 to 50 nM

###

Parameter Dmax: see the listing below.
# target of assay: BTK (Homo sapiens, UniProt Q06187)
# test description: BTK degradation, DC50 and Dmax of Table 1 (cell line not given)
# Type: cell-based
# Parameters: endogenous in cells

Reference set, count: 5
compound	endpoint label	experimental value
Nc1ncnc2c1c(-c1ccc(Oc3ccccc3)cc1)nn2C1CCN(C(=O)N2CCC(c3ccc4c(c3)C(=O)N(C3CCC(=O)NC3=O)C4=O)CC2)CC1 (stereo not drawn) [Compound 77]	Dmax	> 50%
Nc1ncnc2c1c(-c1ccc(Oc3ccccc3)cc1)nn2C1CCN(C(=O)N2CCC(CC3CCN(c4ccc5c(c4)CN(C4CCC(=O)NC4=O)C5=O)CC3)CC2)CC1 (stereo not drawn) [Compound 90]	Dmax	> 90%
Nc1ncnc2c1c(-c1ccc(Oc3ccccc3)cc1)nn2C1CCCN(CCOCCN2CCN(c3ccc4c(c3)CN(C3CCC(=O)NC3=O)C4=O)CC2)C1 (stereo not drawn) [Compound 8]	Dmax	> 90%
Nc1ncnc2c1c(-c1ccc(Oc3ccccc3)cc1)nn2[C@@H]1CCCN(C(=O)N2CCN(CCN3CCC(c4ccc5c(c4)CN(C4CCC(=O)NC4=O)C5=O)CC3)CC2)C1 (stereo partly drawn) [Compound 70]	Dmax	> 90%
Nc1ncnc2c1c(-c1ccc(Oc3ccccc3)cc1)nn2C1CCN(C(=O)N2CCC(c3ccc4c(c3)CN(C3CCC(=O)NC3=O)C4=O)CC2)CC1 (stereo not drawn) [Compound 78]	Dmax	> 50%

Note to self: Dmax recorded for Nc1ncnc2c1c(-c1ccc(Oc3ccccc3)cc1)nn2C1CCN(CCOCCOCCN2CCN(c3ccc4c(c3)C(=O)N(C3CCC(=O)NC3=O)C4=O)CC2)CC1 (stereo not drawn) [Compound 1] was > 90%

###

# target of assay: BTK (Homo sapiens, UniProt Q06187)
# test description: Degradation of BTK protein in Namalwa cells (Western blot; DC50, Dmax)
# condition summary: read-out: DC50 (BTK degradation); concentration giving 50% reduction of BTK expression level; cell line not given
Parameter DC50: see the listing below.

Reference set, count: 2
compound	target of assay	experimental value
Nc1ncnc2c1c(-c1ccc(Oc3ccccc3)cc1)nn2C1CCN(C2CCN(CC3CCN(c4ccc5c(c4)C(=O)N(C4CCC(=O)NC4=O)C5=O)C3)C2)CC1 (stereo not drawn)	BTK (Homo sapiens, UniProt Q06187)	< 10 nM
Nc1ncnc2c1c(-c1ccc(Oc3ccccc3)cc1)nn2C1CCC(C(=O)N2CC(C3CCN(c4ccc5c(c4)C(=O)N(C4CCC(=O)NC4=O)C5=O)CC3)C2)CC1 (stereo not drawn)	BTK (Homo sapiens, UniProt Q06187)	< 10 nM

Note to self: DC50 recorded for Nc1ncnc2c1c(-c1ccc(Oc3ccccc3)cc1)nn2C1CCN(C2CCN(CC3CN(CC4CN(c5ccc6c(c5)C(=O)N(C5CCC(=O)NC5=O)C6=O)C4)C3)CC2)CC1 (stereo not drawn) was 10 to 50 nM

###

Parameter Dmax: see the listing below.
# target of assay: BTK (Homo sapiens, UniProt Q06187)
# test description: Degradation of BTK protein in Namalwa cells (Western blot; DC50, Dmax)
# condition summary: read-out: Dmax (BTK degradation)

compound	experimental value
Nc1ncnc2c1c(-c1ccc(Oc3ccccc3)cc1)nn2C1CCC(CN2CC(N3CCN(c4ccc5c(c4)C(=O)N(C4CCC(=O)NC4=O)C5=O)CC3)C2)CC1 (stereo not shown) [Compound 532]	> 90%
Nc1ncnc2c1c(-c1ccc(Oc3ccccc3)cc1)nn2C1CCN(C2CCN(CCCC#Cc3ccc(N4CCC(=O)NC4=O)cc3)CC2)CC1 [Compound 534]	> 50%
Nc1ncnc2c1c(-c1ccc(Oc3ccccc3)cc1)nn2C1CCN(CCN2CCN(CCSc3ccc4c(c3)C(=O)N(C3CCC(=O)NC3=O)C4=O)CC2)CC1 (stereo not shown) [Compound 465]	> 90%
Nc1ncnc2c1c(-c1ccc(Oc3ccccc3)cc1)nn2C1CCN(C[C@@H]2CCN(CC3CN(CC4CN(c5ccc6c(c5)C(=O)N(C5CCC(=O)NC5=O)C6=O)C4)C3)C2)CC1 (stereo partly shown) [Compound 427b]	> 90%
NC(=O)c1c(-c2ccc(Oc3ccccc3)cc2)nn2c1NCC[C@H]2C1CCN(C2CCN(C(=O)N3CCC(CN4CCC(c5ccc6c(c5)C(=O)N(C5CCC(=O)NC5=O)C6=O)CC4)CC3)CC2)CC1 (stereo partly shown) [Compound 395]	> 75%
Nc1ncnc2c1c(-c1ccc(Oc3ccccc3)cc1)nn2C1CCN(CCCN2CCC(CN3CCN(c4ccc(NC5CCC(=O)NC5=O)cc4)CC3)C2)CC1 (stereo not shown) [Compound 565]	> 75%

Kindly review the next compound as well.
Nc1ncnc2c1c(-c1ccc(Oc3ccccc3)cc1)nn2C1CCN(CC2CCN(CC3CCN(CC4CN(c5ccc6c(c5)C(=O)N(C5CCC(=O)NC5=O)C6=O)C4)CC3)CC2)CC1 (stereo not shown) [Compound 431] tested on BTK (Homo sapiens, UniProt Q06187) gave Dmax: > 90%

###

Parameter Dmax: see the listing below.
# target of assay: BTK (Homo sapiens, UniProt Q06187)
# test description: Degradation of BTK protein in Namalwa cells (Western blot; DC50, Dmax)
# condition summary: read-out: Dmax (BTK degradation)

molecule	Dmax
Nc1ncnc2c1c(-c1ccc(Oc3ccccc3)cc1)nn2C1CCN(C[C@H]2CCN(CC3CCN(c4ccc5c(c4)CN(C4CCC(=O)NC4=O)C5=O)CC3)C2)CC1 (stereo partly drawn) [Compound 446a]	> 90%
Nc1ncnc2c1c(-c1ccc(Oc3ccccc3)cc1)nn2C1CCN(C(=O)NCCN2CCN(c3ccc4c(c3)CN(C3CCC(=O)NC3=O)C4=O)CC2)CC1 (stereo not drawn)	> 90%

Note to self: Dmax recorded for Nc1ncnc2c1c(-c1ccc(Oc3ccccc3)cc1)nn2C1CCN(CC2CN(C[C@H]3CCN(c4ccc5c(c4)C(=O)N(C4CCC(=O)NC4=O)C5=O)C3)C2)CC1 (stereo partly drawn) [Compound 443a] was > 90%

Origin of measurements: patent US12139492B2
